# System: human B1 (Homo sapiens)
# Protocol: Calcium flux assay for Bradykinin B1 antagonist, CHO-K1 cell line expressing human B1
# Measurement Setup: CHO-K1 cells expressing human B1, agonist Lys-(Des-Arg)-Bradykinin, read-out: Potency (IC50 value against human B1)
pIC50: −log10 of the molar value.
Below is a list of entries, each paired with its recorded pIC50 value.

Q: # input compound: `COc1cc(C)c(S(=O)(=O)N(C)Cc2nnc(C(=O)N3CCN(C4CCN(C)CC4)CC3)o2)c(C)c1` ; wanted: its pIC50
Result: 6.00 to 7.00

====

# System: human B1 (Homo sapiens, UniProt P46663)
# Sequence (P46663 1-353): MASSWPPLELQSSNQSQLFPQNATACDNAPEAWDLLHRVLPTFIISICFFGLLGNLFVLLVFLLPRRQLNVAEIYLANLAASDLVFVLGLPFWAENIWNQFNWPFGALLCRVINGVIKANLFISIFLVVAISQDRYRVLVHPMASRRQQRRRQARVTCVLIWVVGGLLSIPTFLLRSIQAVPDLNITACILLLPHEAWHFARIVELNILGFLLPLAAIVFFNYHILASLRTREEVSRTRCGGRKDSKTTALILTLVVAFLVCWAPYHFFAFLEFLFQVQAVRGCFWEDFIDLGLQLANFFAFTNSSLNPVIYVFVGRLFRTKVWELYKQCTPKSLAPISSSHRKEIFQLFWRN
# Protocol: Calcium flux assay for Bradykinin B1 antagonist, CHO-K1 cell line expressing human B1
# Measurement Setup: CHO-K1 cells expressing human B1, agonist Lys-(Des-Arg)-Bradykinin, read-out: Potency (IC50 value against human B1)
Structures can show the parent of a compound that is named as a salt.
Listed below: IC50 values for each entry.

# count of solved cases: 5
compound="COc1cc(C)c(S(=O)(=O)N(Cc2nc(C(=O)N3CCC(CCN4CCCC4)CC3)co2)C2CC2)c(C)c1 [Ex 193, trifluoroacetate]" system="human B1 (Homo sapiens, UniProt P46663)" value_kind=IC50 test_result="< 10 nM"
compound=COc1cc(C)c(S(=O)(=O)N(C)Cc2nnc(C(=O)N3CCN(CC4CCN(C)CC4)CC3)o2)c(C)c1 system="human B1 (Homo sapiens, UniProt P46663)" value_kind=IC50 test_result="< 10 nM"
compound=COc1cc(C)c(S(=O)(=O)N(C)Cc2nnc(C(=O)N(C)Cc3cccc(CN4CCCC4)c3)o2)c(C)c1 system="human B1 (Homo sapiens, UniProt P46663)" value_kind=IC50 test_result="10 to 100 nM"
compound="COc1cc(C)c(S(=O)(=O)N(C)Cc2nc(C(=O)N(C)Cc3cccc(CN4CCCC4)c3)no2)c(C)c1 [Ex 324, trifluoroacetate]" system="human B1 (Homo sapiens, UniProt P46663)" value_kind=IC50 test_result="10 to 100 nM"
compound="COc1cc(C)c(S(=O)(=O)N(Cc2nc(C(=O)N3CCC(N(C)Cc4ccc(OC)nc4)C3)co2)C2CC2)c(C)c1 (stereo not shown) [Ex 212, trifluoroacetate]" system="human B1 (Homo sapiens, UniProt P46663)" value_kind=IC50 test_result="100 to 1000 nM"

Q: Find the measured IC50: item `COc1cc(C)c(S(=O)(=O)N(C)Cc2cc(C(=O)NCCc3ccc(Nc4ccnc(N)n4)cc3)co2)c(C)c1` , target or system human B1 (Homo sapiens, UniProt P46663).
Result: 100 to 1000 nM

Q: Lab note: need IC50 for COc1cc(C)c(S(=O)(=O)N(Cc2nnc(C(=O)N3CCN(CC4CCCN(C)C4)CC3)o2)C2CC2)c(C)c1 (stereo not shown) on human B1 (Homo sapiens, UniProt P46663), anyone have it?
Result: 10 to 100 nM

====

# System: human B1 (Homo sapiens)
# Sequence (P46663 1-353): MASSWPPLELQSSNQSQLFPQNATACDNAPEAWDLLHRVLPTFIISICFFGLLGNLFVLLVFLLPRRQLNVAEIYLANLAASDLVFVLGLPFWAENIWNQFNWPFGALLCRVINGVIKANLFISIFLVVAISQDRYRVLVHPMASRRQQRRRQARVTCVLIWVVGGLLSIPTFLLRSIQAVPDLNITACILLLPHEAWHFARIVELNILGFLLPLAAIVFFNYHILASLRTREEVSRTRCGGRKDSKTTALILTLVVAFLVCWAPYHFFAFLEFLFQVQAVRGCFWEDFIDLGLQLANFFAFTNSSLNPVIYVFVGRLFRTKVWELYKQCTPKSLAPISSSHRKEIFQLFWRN
# Protocol: Calcium flux assay for Bradykinin B1 antagonist, CHO-K1 cell line expressing human B1
# Measurement Setup: CHO-K1 cells expressing human B1, agonist Lys-(Des-Arg)-Bradykinin, read-out: Potency (IC50 value against human B1)
Where a name gives a salt, the structure may show the parent alone.
Value Kind: IC50

Some solved entries appear below for comparison.
compound=CCN(Cc1cc(C(=O)N(C)CCc2ccc(C3=NCCN3)cc2)co1)S(=O)(=O)c1c(C)cc(OC)cc1C system="human B1 (Homo sapiens)" value_kind=IC50 test_result="< 10 nM"
compound="COc1cc(C)c(S(=O)(=O)N(Cc2nc(C(=O)N3CC4CCN(Cc5ccc(N6CCCC6)nc5)CC4C3)co2)C2CC2)c(C)c1 (stereo not drawn) [Ex 211, trifluoroacetate]" system="human B1 (Homo sapiens)" value_kind=IC50 test_result="< 10 nM"
compound=COc1cc(C)c(S(=O)(=O)N(Cc2nc(C(=O)N3CCC(c4ccncc4)CC3)co2)C2CC2)c(C)c1 system="human B1 (Homo sapiens)" value_kind=IC50 test_result="10 to 100 nM"
compound=COc1cc(C)c(S(=O)(=O)N(C)Cc2cc(C(=O)N(C)CCc3ccc(C4=NCCN4C)cc3)co2)c(C)c1 system="human B1 (Homo sapiens)" value_kind=IC50 test_result="100 to 1000 nM"
compound="COc1cc(C)c(S(=O)(=O)N(Cc2cc(C(=O)N(C)Cc3ccc(CN4CCC(NC(C)=O)C4)cc3)co2)C2CC2)c(C)c1 (stereo not drawn)" system="human B1 (Homo sapiens)" value_kind=IC50 test_result="100 to 1000 nM"
compound="COc1cc(C)c(S(=O)(=O)N(C)Cc2cc(C(=O)N(C)Cc3ccc(CN4CCCC(O)C4)cc3)co2)c(C)c1 (stereo not drawn)" system="human B1 (Homo sapiens)" value_kind=IC50 test_result="< 10 nM"

Q: Sample COc1cc(C)c(S(=O)(=O)N(Cc2nc(C(=O)N3CCN(CCc4ccccn4)CC3)co2)C2CC2)c(C)c1 [Ex 228, trifluoroacetate] — what was its IC50?
Result: 10 to 100 nM

Q: Data request, read-out IC50, for COc1cc(C)c(S(=O)(=O)N(Cc2cc(C(=O)N(C)Cc3ccc(CN4CCC(C(=O)N(C)C)C4)cc3)co2)C2CC2)c(C)c1 (stereo not drawn)
Result: 10 to 100 nM

Q: I have this compound here, COc1cc(C)c(S(=O)(=O)N(Cc2nc(C(=O)N3CCC(N(C)C4CCN(C)CC4)C3)co2)C2CC2)c(C)c1 (stereo not drawn) [Ex 208, trifluoroacetate] , and I need its recorded IC50.
Result: 100 to 1000 nM

Q: Recorded IC50 for `COc1cc(C)c(S(=O)(=O)N(C)Cc2cc(C(=O)NCCc3ccc(C4=NCCN4)cc3)co2)c(C)c1` , please?
Result: < 10 nM

Q: What does the record list as IC50 for `COc1cc(C)c(S(=O)(=O)N(C)Cc2nnc(C(=O)N3CCN(CC4CCN(C)CC4)CC3)[nH]2)c(C)c1` ?
Result: 100 to 1000 nM

Q: Look up IC50: `COc1cc(C)c(S(=O)(=O)N(C)Cc2nnc(C(=O)N3CCN(Cc4cnc5ccccc5c4)CC3)o2)c(C)c1`
Result: < 10 nM

Q: # input compound: COc1cc(C)c(S(=O)(=O)N(Cc2nc(C(=O)N3CCN(CCCN4CCCC4)CC3)co2)C2CC2)c(C)c1 [Ex 197, trifluoroacetate] ; wanted: its IC50
Result: < 10 nM

Q: Look up IC50: `COc1cc(C)c(S(=O)(=O)N(C)Cc2cc(C(=O)NCCc3ccc(C4=NCCN4)cc3)c(C)o2)c(C)c1`
Result: 10 to 100 nM

Q: Return reported IC50; argument: COc1cc(C)c(S(=O)(=O)N(Cc2nc(C(=O)N3CCN(Cc4ccncc4F)CC3)co2)C2CC2)c(C)c1 [Ex 232, trifluoroacetate]
Result: 100 to 1000 nM

Q: Requested field: IC50. Item: `COc1cc(C)c(S(=O)(=O)N(C)Cc2nc(C(=O)N(C)Cc3ccc(CN4CC(OC)C4)cc3)co2)c(C)c1`
Result: 10 to 100 nM

Q: Endpoint output: IC50 of CN(CCc1ccc(C2=NCCN2)cc1)C(=O)c1coc(CN(C2CC2)S(=O)(=O)c2c(Cl)cc(Br)cc2Cl)c1 [Ex 124, trifluoroacetate] . Value?
Result: < 10 nM

Q: Report IC50 for `COc1cc(C)c(S(=O)(=O)N(Cc2nnc(C(=O)N3CCN(CC4CCN(C)CC4)CC3)s2)C2CC2)c(C)c1` please.
Result: < 10 nM

Q: Requested field: IC50. Item: COc1cc(C)c(S(=O)(=O)N(C)Cc2nnc(C(=O)N3CCN(Cc4ccc(C(F)(F)F)nc4)CC3)o2)c(C)c1 [Ex 262, trifluoroacetate]
Result: 100 to 1000 nM

Q: Item COc1cc(C)c(S(=O)(=O)N(C)Cc2cc(C(=O)N3CCCC(c4ccc(C5=NCCN5)cc4)C3)co2)c(C)c1 (stereo not drawn) has what recorded IC50?
Result: < 10 nM

Q: Would you kindly share the measured IC50 for COc1cc(C)c(S(=O)(=O)N(Cc2nc(C(=O)N3CCN(CC4CCN(C)CC4)CC3)co2)C2CC2)c(C)c1 [Ex 191, trifluoroacetate trifluoroacetate] ?
Result: < 10 nM

Q: For the compound COc1cc(C)c(S(=O)(=O)N(Cc2nc(C(=O)N3CCN(CC4CCNCC4)CC3)co2)C2CC2)c(C)c1 [Ex 230, trifluoroacetate] , what IC50 is on record?
Result: < 10 nM

Q: Name the reported IC50 value associated with the compound COc1cc(C)c(S(=O)(=O)N(C)Cc2cc(C(=O)NCc3ccc(CN4CCCCCC4)cc3)co2)c(C)c1 [Ex 101, trifluoroacetate]
Result: 100 to 1000 nM
